# EC50 (nM) of stimulation of [35S]GTPγS binding listing for each entry below
- target.or.system: human ORL-1 receptor (opioid receptor like 1) (human, UniProt P41146 1-370)
- Sequence (P41146 whole entry): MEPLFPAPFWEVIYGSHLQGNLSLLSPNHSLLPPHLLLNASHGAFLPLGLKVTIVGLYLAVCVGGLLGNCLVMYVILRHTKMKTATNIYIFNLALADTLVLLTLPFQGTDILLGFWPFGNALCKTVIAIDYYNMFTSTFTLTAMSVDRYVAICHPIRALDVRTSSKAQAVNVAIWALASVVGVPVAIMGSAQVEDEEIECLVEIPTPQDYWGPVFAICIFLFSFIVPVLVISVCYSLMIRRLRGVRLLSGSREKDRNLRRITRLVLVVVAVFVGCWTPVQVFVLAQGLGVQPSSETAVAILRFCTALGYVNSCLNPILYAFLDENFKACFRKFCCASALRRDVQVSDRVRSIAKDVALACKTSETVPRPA
- assay.method.text: cell-based or functional assay
Numbered stars: 1 amine (or outer) side, 2 acyl side, 3 side chain; on linkers, the order of the positions; unused ones are H or OH. Square brackets hold non-standard residues; d marks the D form. Tyr(BN,3-Cl) = tyrosine with benzyl (BN) and 3-Cl, O=C([C@H](Cc1ccc(OCc2ccccc2)c(Cl)c1)N[*:1])[*:2]; Phe(4-NO2) = N[C@@H](Cc1ccc([N+](=O)[O-])cc1)C(=O)O; Tyr(3-Cl) = N[C@@H](Cc1ccc(O)c(Cl)c1)C(=O)O; Phe(4-F) = N[C@@H](Cc1ccc(F)cc1)C(=O)O; Dmt = Cc1cc(O)cc(C)c1C[C@H](N)C(=O)O

Some solved cases for reference:
| binder | test.value |
| --- | --- |
| Ac-R[Phe(4-NO2)]YRWR-NH2 (SMILES CC(=O)N[C@@H](CCCNC(=N)N)C(=O)N[C@@H](Cc1ccc([N+](=O)[O-])cc1)C(=O)N[C@@H](Cc1ccc(O)cc1)C(=O)N[C@@H](CCCNC(=N)N)C(=O)N[C@@H](Cc1c[nH]c2ccccc12)C(=O)N[C@@H](CCCNC(=N)N)C(N)=O, also called Ac-Arg-Phe(NO2)-Tyr-Arg-Trp-Arg-NH2) [VII-23-B] | 15.7 nM |
| Ac-R[Tyr(BN,3-Cl)]YRWR-NH2 (also called Ac-Arg-Tyr(BN*, 3-Cl)-Tyr-Arg-Trp-Arg-NH2) [VII-39-D] | 0.3 nM |
| Ac-R[Tyr(4-Me)]YRWR-NH2 (also called Ac-Arg-Tyr(4-Me)-Tyr-Arg-Trp-Arg-NH2) [VII-35-C] | 51.1 nM |
| Ac-R[Tyr(3-Cl)]YRWR-NH2 (SMILES CC(=O)N[C@@H](CCCNC(=N)N)C(=O)N[C@@H](Cc1ccc(O)c(Cl)c1)C(=O)N[C@@H](Cc1ccc(O)cc1)C(=O)N[C@@H](CCCNC(=N)N)C(=O)N[C@@H](Cc1c[nH]c2ccccc12)C(=O)N[C@@H](CCCNC(=N)N)C(N)=O, also called Ac-Arg-Tyr(3-Cl)-Tyr-Arg-Trp-Arg-NH2) [VII-87-B] | 3.9 nM |
| Ac-RY[Dmt]RWR-NH2 (SMILES CC(=O)N[C@@H](CCCNC(=N)N)C(=O)N[C@@H](Cc1ccc(O)cc1)C(=O)N[C@@H](Cc1c(C)cc(O)cc1C)C(=O)N[C@@H](CCCNC(=N)N)C(=O)N[C@@H](Cc1c[nH]c2ccccc12)C(=O)N[C@@H](CCCNC(=N)N)C(N)=O, also called Ac-Arg-Tyr-Tyr(2,6-di-Me)-Arg-Trp-Arg-NH2) [VII-73-A] | 5.2 nM |

Complete the entry with EC50 (nM) of stimulation of [35S]GTPγS binding for Ac-R[Phe(4-F)]YRWR-NH2 (SMILES CC(=O)N[C@@H](CCCNC(=N)N)C(=O)N[C@@H](Cc1ccc(F)cc1)C(=O)N[C@@H](Cc1ccc(O)cc1)C(=O)N[C@@H](CCCNC(=N)N)C(=O)N[C@@H](Cc1c[nH]c2ccccc12)C(=O)N[C@@H](CCCNC(=N)N)C(N)=O, also called Ac-Arg-Phe(4-F)-Tyr-Arg-Trp-Arg-NH2) [VII-31-B]
35.7 nM
